The following are reported pKi results, target or system Beta-arrestin-1 (Oryctolagus cuniculus, UniProt Q95223).
Friendly reminder that pKi comes from taking -log10 of the concentration in mol/L.

- smiles-string: "CC(C)C[C@H](NC(=O)[C@H](Cc1ccccc1)NC(=O)CNC(=O)[C@@H](C)NC(=O)[C@@H](N)Cc1ccc(O)cc1)C(=O)O"
  quantitative-readout: 8.44

Now turn to the next compound.
Tested on Beta-arrestin-1 (Oryctolagus cuniculus, UniProt Q95223): C=CCN1CC[C@]23c4c5ccc(O)c4O[C@H]2C(=O)CC[C@@]3(O)[C@H]1C5 . Observed pKi: 7.17

###

target-of-assay: Beta-arrestin-1 (Oryctolagus cuniculus, UniProt Q95223)
Sequence (Q95223 whole entry): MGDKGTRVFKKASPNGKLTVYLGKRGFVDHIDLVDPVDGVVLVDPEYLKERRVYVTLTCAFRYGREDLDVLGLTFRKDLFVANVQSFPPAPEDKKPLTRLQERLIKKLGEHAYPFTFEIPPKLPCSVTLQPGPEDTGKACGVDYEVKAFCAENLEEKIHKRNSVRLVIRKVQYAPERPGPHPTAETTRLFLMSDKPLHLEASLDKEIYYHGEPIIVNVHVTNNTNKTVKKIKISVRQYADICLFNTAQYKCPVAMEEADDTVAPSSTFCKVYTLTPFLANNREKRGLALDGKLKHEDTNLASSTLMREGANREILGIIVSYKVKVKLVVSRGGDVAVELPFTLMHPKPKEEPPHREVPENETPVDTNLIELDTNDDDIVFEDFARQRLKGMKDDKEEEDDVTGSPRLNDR
measurement-kind: pKi
The value called pKi is obtained by taking minus log10 of the concentration in mol/L.

Record H-YGGFMTSEKSQTPLVTLFKNAIVKNAHKKGQ-OH [Beta-Endorphin] / Beta-arrestin-1 (Oryctolagus cuniculus, UniProt Q95223), pKi recorded as 7.68
